Source listed as paper PMC11079024.

# tested on: C. elegans (N2) complex I (NADH:ubiquinone oxidoreductase) (Caenorhabditis elegans, UniProt P24887+Q93873+Q94360)
# Sequence (Q94360 17-199): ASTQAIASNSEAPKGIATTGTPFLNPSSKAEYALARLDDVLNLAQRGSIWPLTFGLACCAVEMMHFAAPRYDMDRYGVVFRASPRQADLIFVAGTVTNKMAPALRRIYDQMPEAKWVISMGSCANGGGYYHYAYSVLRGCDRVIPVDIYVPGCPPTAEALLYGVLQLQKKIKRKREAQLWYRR
# Sequence (P24887 whole entry): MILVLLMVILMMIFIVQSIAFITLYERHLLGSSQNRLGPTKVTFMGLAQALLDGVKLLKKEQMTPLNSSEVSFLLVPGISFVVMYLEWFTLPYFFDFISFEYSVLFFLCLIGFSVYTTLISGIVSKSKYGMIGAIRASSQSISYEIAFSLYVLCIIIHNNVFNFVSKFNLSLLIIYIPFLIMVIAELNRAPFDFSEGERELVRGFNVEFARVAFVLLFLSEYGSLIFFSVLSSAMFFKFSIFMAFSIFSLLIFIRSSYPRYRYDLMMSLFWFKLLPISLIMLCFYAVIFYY
# Sequence (Q93873 31-482): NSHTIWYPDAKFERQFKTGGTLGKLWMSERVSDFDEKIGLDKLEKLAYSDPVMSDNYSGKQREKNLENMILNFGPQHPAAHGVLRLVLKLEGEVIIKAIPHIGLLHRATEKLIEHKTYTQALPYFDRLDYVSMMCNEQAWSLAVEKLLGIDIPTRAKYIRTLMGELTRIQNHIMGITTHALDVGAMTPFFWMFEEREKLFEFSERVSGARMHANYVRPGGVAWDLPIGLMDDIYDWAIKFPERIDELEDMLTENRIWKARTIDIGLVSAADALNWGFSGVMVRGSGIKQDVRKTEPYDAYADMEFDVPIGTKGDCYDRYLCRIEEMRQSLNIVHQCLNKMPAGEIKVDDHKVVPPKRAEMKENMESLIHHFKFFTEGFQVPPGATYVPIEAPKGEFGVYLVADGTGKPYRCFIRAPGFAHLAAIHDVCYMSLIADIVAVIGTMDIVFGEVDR
# assay explanation: biochemical
# Format: biochemical
# conditions: Dose 1.5 µM; read-out: C. elegans mitochondrial complex I activity
Give measured activity at 1.5 µM for each item. Keep answers brief.
Could you give me the number in %? Just the number is fine.

Dear colleague, I am looking for the recorded activity at 1.5 µM of the following compound: "CCCOc1ccc(Cn2cnc3ccccc32)cc1"
31.8

Try this compound next: "Brc1ccccc1OCCCCn1cnc2ccccc21"
21.3

"Nc1nc2ccccc2n1CCOc1ccc(Br)cc1" ?
76.4

Same question for "Clc1ccc(OCCn2cnc3ccccc32)c(Cl)c1" please.
71.9

Now this one: "Cc1ccc(OCCn2cnc3ccccc32)c(C)c1"
55.5

Entry "Cc1nc2ccccc2n1CCOc1ccccc1Cl" please
51.9

One more compound: "Clc1ccccc1OCCCCn1cnc2ccccc21"
15.5

Then "Cc1ccc(OCCn2cnc3ccccc32)cc1" ?
79.2

How about this compound: "Cc1ccc(CSCc2nc3ccccc3[nH]2)cc1"
94

Now the same for "Cc1ccccc1OCCCn1c(C)nc2ccccc21"
42.6

----------
Provide the recorded viability at 500 µM for the entries that follow.
# Test system: ben-1 mutant (ECA882) C. elegans
# assay explanation: microbe, parasite or virus in culture
# conditions: Caenorhabditis elegans, read-out: C. elegans ben-1(e1880) development/viability
Report the figure in % without appending any unit label.

Name the recorded viability at 500 µM for "Cc1nc2ccccc2n1CCOc1ccccc1Cl" .
35.3

# repeat for "Nc1nc2ccccc2n1Cc1ccc(Cl)cc1"
6.3

Now consider "Cc1ccccc1OCCCCn1cnc2ccccc21" .
1.6

Can you check "FC(F)(F)c1cccc(OCCCCn2cnc3ccccc32)c1" next?
2.6

----------
# tested on: B. taurus (heart) complex I (Bos taurus, UniProt P03887+P17694+P42026)
# Sequence (P03887 whole entry): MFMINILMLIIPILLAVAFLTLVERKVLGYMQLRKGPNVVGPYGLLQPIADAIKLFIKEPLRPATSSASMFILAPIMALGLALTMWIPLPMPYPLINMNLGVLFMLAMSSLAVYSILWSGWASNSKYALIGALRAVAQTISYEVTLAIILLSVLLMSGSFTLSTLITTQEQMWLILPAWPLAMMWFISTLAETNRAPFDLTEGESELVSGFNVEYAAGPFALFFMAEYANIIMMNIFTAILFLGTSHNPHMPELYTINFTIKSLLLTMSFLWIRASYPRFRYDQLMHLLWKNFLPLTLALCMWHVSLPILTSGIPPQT
# Sequence (P17694 34-463): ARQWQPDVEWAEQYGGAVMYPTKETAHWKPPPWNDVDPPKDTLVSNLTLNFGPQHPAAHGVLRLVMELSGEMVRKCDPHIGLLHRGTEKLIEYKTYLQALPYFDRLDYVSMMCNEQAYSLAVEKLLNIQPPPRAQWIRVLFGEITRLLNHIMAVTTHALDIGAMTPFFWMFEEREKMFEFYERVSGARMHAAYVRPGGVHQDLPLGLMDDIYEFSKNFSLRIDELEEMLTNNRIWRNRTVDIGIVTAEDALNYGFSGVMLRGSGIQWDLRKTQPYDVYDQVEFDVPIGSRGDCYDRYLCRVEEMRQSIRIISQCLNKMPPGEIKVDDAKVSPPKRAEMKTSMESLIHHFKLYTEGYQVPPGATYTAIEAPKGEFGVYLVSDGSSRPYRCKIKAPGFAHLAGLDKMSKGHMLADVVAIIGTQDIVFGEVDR
# Sequence (P42026 38-216): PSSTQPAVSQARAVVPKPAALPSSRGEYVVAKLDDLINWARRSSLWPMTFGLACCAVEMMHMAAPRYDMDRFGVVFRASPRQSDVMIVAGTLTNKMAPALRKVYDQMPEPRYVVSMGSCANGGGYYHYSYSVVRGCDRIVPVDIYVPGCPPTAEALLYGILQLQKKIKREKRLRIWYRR
# assay explanation: biochemical
# Assay type: biochemical
# conditions: Dose 0.625 µM; read-out: B. taurus mitochondrial complex I activity
Provide the recorded activity at 0.625 µM for the entries that follow.
All answers are understood in %, so give the number only.

What value of activity at 0.625 µM has been reported for the following compound? Clc1ccc(Cn2cnc3ccccc32)c(Cl)c1 [Compound 6750659]
78.3

Try the compound Cc1cccc(OCCn2c(C)nc3ccccc32)c1 [Compound 6285199]
79

Ok, now Cc1ccc(SCCCn2cnc3ccccc32)cc1 [Compound 7926035]
78.8

For FC(F)(F)c1cccc(OCCCCn2cnc3ccccc32)c1 [Compound 7925004] then?
88.4

----------
# tested on: C. elegans (N2) complex I (NADH:ubiquinone oxidoreductase) (Caenorhabditis elegans, UniProt P24887+Q93873+Q94360)
# assay explanation: biochemical
# Type: biochemical
# conditions: Dose 0.313 µM; read-out: C. elegans mitochondrial complex I activity
Record form. Attribute: activity at 0.313 µM. Fill in for each entry.
Respond numerically; units are % and should not be typed.

Query: activity at 0.313 µM; subject: Cc1ccccc1OCCCn1c(C)nc2ccccc21 [Compound 7916923]
78.5

Same thing, different compound: Cc1nc2ccccc2n1CCOc1ccccc1 [Compound 5550112]
78

And for FC(F)(F)c1cccc(OCCCCn2cnc3ccccc32)c1 [Compound 7925004] ?
81.9

----------
Give IC50 for every item shown.
# tested on: B. taurus (heart) complex I (Bos taurus, UniProt P03887+P17694+P42026)
# assay explanation: biochemical
# Assay type: biochemical
# conditions: B. taurus heart mitochondria; estimated from fitted dose-response curves; read-out: B. taurus Complex I IC50
Express your answer in µM, writing the number without its unit.

// lookup IC50 for Cc1ccc2nc(C(C)c3ccc(CC(C)C)cc3)[nH]c2c1 (stereo not drawn)
12.3

Let us now turn to "FC(F)(F)c1cccc(OCCCCn2cnc3ccccc32)c1"
13

Do the same for "Clc1ccc(SCCCCn2cnc3ccccc32)cc1" please
8.02
